- studySystem: NK1 receptor (Cavia porcellus, UniProt P30547)
- Construct: guinea pig cerebral cortex membranes; from tissue; host or cells: guinea pig cerebral cortex membranes
- Sequence (P30547 whole entry): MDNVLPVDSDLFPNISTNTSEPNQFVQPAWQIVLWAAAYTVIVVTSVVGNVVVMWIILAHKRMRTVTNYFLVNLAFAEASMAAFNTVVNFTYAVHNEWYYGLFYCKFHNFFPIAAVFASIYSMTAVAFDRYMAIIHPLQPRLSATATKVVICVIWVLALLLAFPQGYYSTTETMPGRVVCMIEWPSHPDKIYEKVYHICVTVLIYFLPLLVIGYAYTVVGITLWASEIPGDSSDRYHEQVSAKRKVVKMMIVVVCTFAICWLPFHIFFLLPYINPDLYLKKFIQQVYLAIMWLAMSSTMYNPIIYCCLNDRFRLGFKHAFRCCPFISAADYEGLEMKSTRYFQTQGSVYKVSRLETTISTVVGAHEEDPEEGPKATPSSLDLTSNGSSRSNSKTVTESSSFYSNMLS
- assayProtocol: In vitro NK1 receptor binding ([125I] Bolton Hunter Substance-P, guinea pig cerebral cortex membranes)
- settings: [125I-BH]Substance-P 0.1 nM, read-out: Binding IC50, In Vitro NK1 Receptor Binding
IC50 overview
Note: unit nM is implicit; provide only the numeric part.

Data request: Fill in IC50 for record C[C@H](NC(=O)[C@@](C)(Cc1c[nH]c2ccccc12)NC(=O)OCc1ccco1)c1ccccc1 (relative stereo) [Example 49]
Data returned: 120

Data request: Fill in IC50 for record CC(NC(=O)C(Cc1c[nH]c2ccccc12)NC(=O)OCc1ccccc1)c1ccccc1 (stereo not drawn) [Example 4]
Data returned: 198

Data request: Fill in IC50 for record CN(C(=O)OCc1ccc(Cl)cc1)[C@@H](Cc1c[nH]c2ccccc12)C(=O)NCc1ccccc1 [Example 29]
Data returned: 487

----------
- studySystem: NK1 receptor (Cavia porcellus, UniProt P30547)
- Construct: guinea pig cerebral cortex membranes; from tissue; host or cells: guinea pig cerebral cortex membranes
- assayProtocol: In vitro NK1 receptor binding ([125I] Bolton Hunter Substance-P, guinea pig cerebral cortex membranes)
- settings: [125I-BH]Substance-P 0.1 nM, read-out: Binding IC50, In Vitro NK1 Receptor Binding
valueType: pIC50
pIC50 field: float, defined as -log10 of concentration (mol/L).

>  <compound>
C[C@H](NC(=O)[C@@H](Cc1ccc2ccccc2c1)NC(=O)OCc1ccccc1)c1ccccc1

>  <pIC50>
5.77

$$$$
>  <compound>
O=C(N[C@@H](Cc1c[nH]c2ccccc12)C(=O)OCc1cc(C(F)(F)F)cc(C(F)(F)F)c1)OCc1ccccc1

>  <pIC50>
6.63

$$$$
>  <compound>
C[C@H](NC(=O)[C@@](C)(Cc1c[nH]c2ccccc12)NC(=O)OCc1ccsc1)c1ccccc1

>  <pIC50>
6.85

$$$$

Data request: Fill in pIC50 for record CC(NC(=O)C(C)(Cc1c[nH]c2ccccc12)NC(=O)OCc1ccccc1)C1CCCCC1 (stereo not shown)
Data returned: 7.00

Data request: Fill in pIC50 for record `C[C@@H](NC(=O)[C@H](Cc1c[nH]c2ccccc12)N(C)C(=O)OCc1ccccc1)c1ccccc1`
Data returned: 6.51

Data request: Fill in pIC50 for record `C[C@H](NC(=O)[C@@](C)(Cc1c[nH]c2ccccc12)NC(=O)OCc1cccc(F)c1)c1ccccc1`
Data returned: 6.92
